# Target system: Casein kinase I isoform delta (Homo sapiens)
# Procedure details: inhibition of casein kinase 1 delta activity – biochemical, radioactive 33P-ATP, purified kinase, powder samples, late-stage follow-up (AID 463077)
# Details: purified CK1d, 33P-ATP filter-binding, CK1tide
// reported IC50 for each item listed

Molecule smiles | IC50
Fc1ccc2nc(CNc3nc(N4CCOCC4)nc4c3ncn4-c3ccsc3)[nH]c2c1 | 50 nM
Clc1ccc2nc(CNc3nc(N4CCOCC4)nc4c3ncn4-c3ccsc3)[nH]c2c1 | 105 nM
COc1ccc2nc(CNc3nc(N4CCOCC4)nc4c3ncn4-c3ccsc3)[nH]c2c1 | 17 nM

Would you mind telling me what IC50 value was observed for c1ccc2cc3[nH]c(CNc4nc(N5CCOCC5)nc5c4ncn5-c4ccsc4)nc3cc2c1 ?
129 nM
